Numbers sourced from patent US9309242B2.

Please respond with reported IC50 for every item in the list.
- system_name: FGFR2 (h) (Homo sapiens, UniProt P21802)
- Sequence (P21802 22-821): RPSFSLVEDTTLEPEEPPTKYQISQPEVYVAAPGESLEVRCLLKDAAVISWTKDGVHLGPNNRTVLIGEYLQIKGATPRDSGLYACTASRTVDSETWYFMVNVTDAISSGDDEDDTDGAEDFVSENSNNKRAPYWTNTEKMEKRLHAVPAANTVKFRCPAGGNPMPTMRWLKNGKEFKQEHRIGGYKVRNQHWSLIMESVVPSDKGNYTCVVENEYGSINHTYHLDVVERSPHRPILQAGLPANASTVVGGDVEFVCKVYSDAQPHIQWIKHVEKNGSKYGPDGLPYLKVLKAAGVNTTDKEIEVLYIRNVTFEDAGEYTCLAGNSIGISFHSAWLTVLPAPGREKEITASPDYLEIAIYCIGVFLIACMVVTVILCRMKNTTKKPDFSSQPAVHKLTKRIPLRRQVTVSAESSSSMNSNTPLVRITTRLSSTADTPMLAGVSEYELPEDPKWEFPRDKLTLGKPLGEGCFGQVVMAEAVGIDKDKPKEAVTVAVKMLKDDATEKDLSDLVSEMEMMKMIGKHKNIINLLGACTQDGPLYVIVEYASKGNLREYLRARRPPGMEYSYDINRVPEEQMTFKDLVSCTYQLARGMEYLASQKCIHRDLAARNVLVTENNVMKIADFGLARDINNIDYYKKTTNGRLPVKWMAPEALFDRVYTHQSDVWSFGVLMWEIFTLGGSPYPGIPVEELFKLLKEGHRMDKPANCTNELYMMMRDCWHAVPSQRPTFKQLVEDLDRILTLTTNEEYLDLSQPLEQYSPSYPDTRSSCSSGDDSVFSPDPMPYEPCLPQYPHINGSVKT
- procedure_summary: FGFR2 (enzymatic assay), TR-FRET
- Format: biochemical
- condition_notes: enzymatic assay; read-out: FGFR 2 pIC50 (converted)
Respond with the figure and its unit, in that order.

# molecule, measured_value
records = [
    ("COc1cc(OC)c(F)c(N(CC(C)(C)O)c2ccc3ncc(-c4cnn(C)c4)nc3n2)c1F", "4.17 nM"),
]

Required: IC50, one value per molecule below.
1. COc1cc(OC)c(F)c(N(CC2CCCCO2)c2ccc3ncc(-c4cnn(C)c4)nc3n2)c1 (stereo not shown)
2. COc1cc(OC)c(F)c(N(Cc2nccn2C)c2ccc3ncc(-c4cnn(C)c4)nc3n2)c1
3. COc1cc(/N=c2\ccc3ncc(-c4cnn(C)c4)nc3n2CC2CCC(=O)N2C)c(F)c(OC)c1 (stereo not shown) [Compound 158]
4. CNCCN(c1ccc2ncc(-c3cnn(C)c3)nc2n1)c1c(F)c(O)cc(OC)c1F
5. COc1cc(OC)c(F)c(N(CCN(C2COC2)C2COC2)c2ccc3ncc(-c4cnn(C)c4)nc3n2)c1

Result:
1: 3.31 nM; 2: 2.63 nM; 3: 1.86 nM; 4: 3.31 nM; 5: 5.25 nM

---

- system_name: FGFR4 (h) (Homo sapiens, UniProt P22455)
- Sequence (P22455 22-802): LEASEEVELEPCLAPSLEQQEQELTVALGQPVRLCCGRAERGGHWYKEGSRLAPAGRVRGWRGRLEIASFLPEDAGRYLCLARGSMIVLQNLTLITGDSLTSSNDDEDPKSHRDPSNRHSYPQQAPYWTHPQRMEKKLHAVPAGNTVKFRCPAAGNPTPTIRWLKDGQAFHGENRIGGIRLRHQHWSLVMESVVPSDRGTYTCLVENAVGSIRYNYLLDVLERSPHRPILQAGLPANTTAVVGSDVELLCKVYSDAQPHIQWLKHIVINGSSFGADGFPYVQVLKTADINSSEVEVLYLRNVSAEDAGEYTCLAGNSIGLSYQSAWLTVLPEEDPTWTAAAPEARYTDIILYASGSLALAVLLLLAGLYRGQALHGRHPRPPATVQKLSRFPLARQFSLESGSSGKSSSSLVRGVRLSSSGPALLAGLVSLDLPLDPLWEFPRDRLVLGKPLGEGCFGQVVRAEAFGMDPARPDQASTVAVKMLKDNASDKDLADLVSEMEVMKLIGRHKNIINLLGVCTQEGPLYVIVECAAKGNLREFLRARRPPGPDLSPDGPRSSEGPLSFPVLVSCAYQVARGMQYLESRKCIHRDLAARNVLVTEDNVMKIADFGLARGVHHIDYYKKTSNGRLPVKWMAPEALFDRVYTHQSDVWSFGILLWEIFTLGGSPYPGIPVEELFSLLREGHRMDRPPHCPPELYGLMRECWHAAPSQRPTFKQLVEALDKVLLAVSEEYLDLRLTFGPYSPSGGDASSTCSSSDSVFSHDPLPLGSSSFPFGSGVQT
- procedure_summary: FGFR4 (enzymatic assay), TR-FRET
- Type: biochemical
- condition_notes: FGFR 4 pIC50, enzymatic assay
measurement_kind: IC50 (nM)
Give bare numbers, in nM.

Sample answers from the record:
# molecule, output_unit, measured_value
rows = [
    ("COc1cc(OC)c(F)c(/N=c2\\ccc3ncc(-c4cnn(C)c4)nc3n2CC2CCOC2)c1F (centres unmarked) [Compound 154]", "nM", 0.776),
    ("COc1cc(OC)c(F)c(N(Cc2nn[nH]n2)c2ccc3ncc(-c4cnn(C)c4)nc3n2)c1 [Compound 140]", "nM", 11.7),
    ("COc1cc(OC)c(F)c(N(Cc2ncc[nH]2)c2ccc3ncc(-c4cnn(CC(C)(C)O)c4)nc3n2)c1 [Compound 240]", "nM", 1.91),
]

Required: IC50, one value per molecule below.
1. COc1cc(/N=c2\ccc3ncc(-c4cnn(C)c4)nc3n2CC2CCC(=O)N2CCO)c(F)c(OC)c1 (single isomer, unassigned) [Compound 219]
2. COc1cc(OC)c(F)c(N(CCO)c2ccc3ncc(-c4cnn(CCO)c4)nc3n2)c1 [Compound 233]
3. COc1cc(OC)c(F)c(N(CC2CCC(=O)N2C)c2ccc3ncc(-c4cnn(C)c4)nc3n2)c1 (centres unmarked) [Compound 159]
4. CCn1/c(=N/c2c(F)c(OC)cc(OC)c2F)ccc2ncc(-c3cnn(C)c3)nc21 [Compound 257]
5. COc1cc(/N=c2\ccc3ncc(-c4cnn(C)c4)nc3n2CCN2CCCC2=O)c(F)c(OC)c1 [Compound 156]
6. COc1cc(OC)c(F)c(N(Cc2nccn2CCO)c2ccc3ncc(-c4cnn(C)c4)nc3n2)c1 [Compound 145]
7. COc1cc(/N=c2\ccc3ncc(-c4cnn(C)c4)nc3n2Cc2cc(C)on2)c(F)c(OC)c1 [Compound 181]

Result:
1. 1.91
2. 2.88
3. 20.4
4. 0.457
5. 6.92
6. 10.5
7. 1.05

Required: IC50, one value per molecule below.
1. COc1cc(/N=c2\ccc3ncc(-c4cnn(C)c4)nc3n2CCN2CCOCC2)c(F)c(OC)c1 [Compound 148]
2. COc1cc(OC)c(F)c(N(CC2CC(O)C(=O)N2)c2ccc3ncc(-c4cnn(C)c4)nc3n2)c1 (centres unmarked) [Compound 269]
3. COc1cc(OC)c(F)c(N(CC2CCC(=O)N2CCO)c2ccc3ncc(-c4cnn(C)c4)nc3n2)c1 (single isomer, unassigned) [Compound 218]
4. COc1cc(/N=c2\ccc3ncc(-c4cnn(C)c4)nc3n2Cc2cc(C)no2)c(F)c(OC)c1 [Compound 184]
5. COc1cc(OC)c(F)c(N(CC(N)=O)c2ccc3ncc(-c4cnn(C)c4)nc3n2)c1 [Compound 239]

Result:
[1.62, 3.09, 3.89, 1.17, 35.5]
